Measured luminescent signals, listed per entry.
Test system: TMD8
assay.name: Combined drug treatment cell viability (CellTiter-Glo), ibrutinib with BET inhibitors, TMD8
Type: cell-based
experimental.parameters: ibrutinib 0.0256 nM with I-BET151 200 nM, JQ1 20 nM, OTX015 100 nM or medium alone (row), 3 days
# answer = number (no unit)

Observe how each entry below is paired with its result.
>>> observed_result("C=CC(=O)N1CCC[C@@H](n2nc(-c3ccc(Oc4ccccc4)cc3)c3c(N)ncnc32)C1")
32496.06
>>> observed_result("COc1cc2c(cc1-c1c(C)noc1C)ncc1[nH]c(=O)n([C@H](C)c3ccccn3)c12")
14177.65
>>> observed_result("Cc1sc2c(c1C)C(c1ccc(Cl)cc1)=N[C@@H](CC(=O)OC(C)(C)C)c1nnc(C)n1-2")
18249.87

API: the following record is the query input.
Lookup result for Cc1sc2c(c1C)C(c1ccc(Cl)cc1)=N[C@@H](CC(=O)Nc1ccc(O)cc1)c1nnc(C)n1-2 ; measured luminescent signals: 11004.22

###

Measured luminescent signals, listed per entry.
Test system: TMD8
assay.name: Combined drug treatment cell viability (CellTiter-Glo), ibrutinib with BET inhibitors, TMD8
Format: cell-based
experimental.parameters: ibrutinib 80 nM with I-BET151 200 nM, JQ1 20 nM, OTX015 100 nM or medium alone (row), 3 days
# answer = number (no unit)

Lookup result for COc1cc2c(cc1-c1c(C)noc1C)ncc1[nH]c(=O)n([C@H](C)c3ccccn3)c12 ; measured luminescent signals: 11526.1

Lookup result for Cc1sc2c(c1C)C(c1ccc(Cl)cc1)=N[C@@H](CC(=O)Nc1ccc(O)cc1)c1nnc(C)n1-2 ; measured luminescent signals: 9472.854

Lookup result for C=CC(=O)N1CCC[C@@H](n2nc(-c3ccc(Oc4ccccc4)cc3)c3c(N)ncnc32)C1 ; measured luminescent signals: 28263.05

Lookup result for Cc1sc2c(c1C)C(c1ccc(Cl)cc1)=N[C@@H](CC(=O)OC(C)(C)C)c1nnc(C)n1-2 ; measured luminescent signals: 15297.84

###

Test system: OCI-LY10
assay.name: Combined drug treatment cell viability (CellTiter-Glo), ibrutinib with BET inhibitors, OCI-LY10
Format: cell-based
experimental.parameters: OCI-LY-10; ibrutinib […] with I-BET151 5 uM, JQ1 1 uM, OTX015 1 uM or medium alone (row); 3 days
quantity.kind: luminescent signals
# answer = number (no unit)

Observe how each entry below is paired with its result.
>>> observed_result("Cc1sc2c(c1C)C(c1ccc(Cl)cc1)=N[C@@H](CC(=O)Nc1ccc(O)cc1)c1nnc(C)n1-2")
42647.18
>>> observed_result("Cc1sc2c(c1C)C(c1ccc(Cl)cc1)=N[C@@H](CC(=O)OC(C)(C)C)c1nnc(C)n1-2")
47932.71
>>> observed_result("COc1cc2c(cc1-c1c(C)noc1C)ncc1[nH]c(=O)n([C@H](C)c3ccccn3)c12")
38721.15

API: the following record is the query input.
Lookup result for C=CC(=O)N1CCC[C@@H](n2nc(-c3ccc(Oc4ccccc4)cc3)c3c(N)ncnc32)C1 ; measured luminescent signals: 68196.56

###

Tested on: OCI-LY3
assay.name: Combined drug treatment cell viability (CellTiter-Glo), ibrutinib with BET inhibitors, OCI-LY3
Type: cell-based
experimental.parameters: OCI-LY-3; ibrutinib 10000 nM with I-BET151 5 uM, JQ1 1 uM, OTX015 1 uM or medium alone (row); 3 days
Measured luminescent signals, listed per entry.
# answer = number (no unit)

Lookup result for C=CC(=O)N1CCC[C@@H](n2nc(-c3ccc(Oc4ccccc4)cc3)c3c(N)ncnc32)C1 ; measured luminescent signals: 63477.51

Lookup result for COc1cc2c(cc1-c1c(C)noc1C)ncc1[nH]c(=O)n([C@H](C)c3ccccn3)c12 ; measured luminescent signals: 14424.2

Lookup result for Cc1sc2c(c1C)C(c1ccc(Cl)cc1)=N[C@@H](CC(=O)OC(C)(C)C)c1nnc(C)n1-2 ; measured luminescent signals: 21414.57

Lookup result for Cc1sc2c(c1C)C(c1ccc(Cl)cc1)=N[C@@H](CC(=O)Nc1ccc(O)cc1)c1nnc(C)n1-2 ; measured luminescent signals: 14418.95

###

Measured luminescent signals, listed per entry.
Test system: OCI-LY3
assay.name: Combined drug treatment cell viability (CellTiter-Glo), ibrutinib with BET inhibitors, OCI-LY3
Type: cell-based
experimental.parameters: OCI-LY-3; ibrutinib 400 nM with I-BET151 5 uM, JQ1 1 uM, OTX015 1 uM or medium alone (row); 3 days

Observe how each entry below is paired with its result.
>>> observed_result("Cc1sc2c(c1C)C(c1ccc(Cl)cc1)=N[C@@H](CC(=O)OC(C)(C)C)c1nnc(C)n1-2")
22621.62
>>> observed_result("Cc1sc2c(c1C)C(c1ccc(Cl)cc1)=N[C@@H](CC(=O)Nc1ccc(O)cc1)c1nnc(C)n1-2")
15615.51
>>> observed_result("COc1cc2c(cc1-c1c(C)noc1C)ncc1[nH]c(=O)n([C@H](C)c3ccccn3)c12")
15392.46

API: the following record is the query input.
# lookup: C=CC(=O)N1CCC[C@@H](n2nc(-c3ccc(Oc4ccccc4)cc3)c3c(N)ncnc32)C1 on OCI-LY3, luminescent signals = 64472.02

###

System: OCI-LY10
assay.name: Combined drug treatment cell viability (CellTiter-Glo), ibrutinib with BET inhibitors, OCI-LY10
Format: cell-based
experimental.parameters: OCI-LY-10; ibrutinib 0.0256 nM with I-BET151 5 uM, JQ1 1 uM, OTX015 1 uM or medium alone (row); 3 days
Measured luminescent signals, listed per entry.
# answer = number (no unit)

Observe how each entry below is paired with its result.
>>> observed_result("COc1cc2c(cc1-c1c(C)noc1C)ncc1[nH]c(=O)n([C@H](C)c3ccccn3)c12")
41108.85
>>> observed_result("C=CC(=O)N1CCC[C@@H](n2nc(-c3ccc(Oc4ccccc4)cc3)c3c(N)ncnc32)C1")
61548.88
>>> observed_result("Cc1sc2c(c1C)C(c1ccc(Cl)cc1)=N[C@@H](CC(=O)OC(C)(C)C)c1nnc(C)n1-2")
45492.43

API: the following record is the query input.
Lookup result for Cc1sc2c(c1C)C(c1ccc(Cl)cc1)=N[C@@H](CC(=O)Nc1ccc(O)cc1)c1nnc(C)n1-2 ; measured luminescent signals: 42481.51

###

Measured luminescent signals, listed per entry.
Tested on: TMD8
assay.name: Combined drug treatment cell viability (CellTiter-Glo), ibrutinib with BET inhibitors, TMD8
Assay type: cell-based
experimental.parameters: ibrutinib […] with I-BET151 200 nM, JQ1 20 nM, OTX015 100 nM or medium alone (row), 3 days
# answer = number (no unit)

>>> observed_result("Cc1sc2c(c1C)C(c1ccc(Cl)cc1)=N[C@@H](CC(=O)Nc1ccc(O)cc1)c1nnc(C)n1-2")
11191.36
>>> observed_result("COc1cc2c(cc1-c1c(C)noc1C)ncc1[nH]c(=O)n([C@H](C)c3ccccn3)c12")
13950.98
>>> observed_result("C=CC(=O)N1CCC[C@@H](n2nc(-c3ccc(Oc4ccccc4)cc3)c3c(N)ncnc32)C1")
32828.16

API: the following record is the query input.
Lookup result for Cc1sc2c(c1C)C(c1ccc(Cl)cc1)=N[C@@H](CC(=O)OC(C)(C)C)c1nnc(C)n1-2 ; measured luminescent signals: 18911.45

Value source: patent US20160022684A1
